Biological target: Estrogen receptor (Bos taurus) (UniProt Q9XSB5+P49884)
Assay: Displacement of [3H]- estradiol from calf uterine estrogen receptor
Type: protein assay
assay.endpoint: relative binding affinity (RBA)
Kindly provide the number alone.

Observe how each entry below is paired with its result.
compound: CCCNC(c1c(Cl)cc(O)cc1Cl)C(NCCC)c1c(Cl)cc(O)cc1Cl (racemic)
relative binding affinity (RBA): 1

compound: CCCNC(c1c(Cl)cc(O)cc1Cl)C(NCCC)c1c(Cl)cc(O)cc1Cl (stereo in doubt)
relative binding affinity (RBA): 8.2

compound: CNC(c1c(Cl)cc(O)cc1Cl)C(NC)c1c(Cl)cc(O)cc1Cl (racemic)
relative binding affinity (RBA): 1.3

compound: CCNC(c1c(Cl)cc(O)cc1Cl)C(NCC)c1c(Cl)cc(O)cc1Cl (stereo in doubt)
relative binding affinity (RBA): 8.6

compound: CNC(c1c(Cl)cc(O)cc1Cl)C(NC)c1c(Cl)cc(O)cc1Cl (stereo in doubt)
relative binding affinity (RBA): 2.3

// switching to the query compound
Write down relative binding affinity (RBA) measured for item CCNC(c1c(Cl)cc(O)cc1Cl)C(NCC)c1c(Cl)cc(O)cc1Cl (racemic)
2.1
